B1: TPR t1 (parent)
chain: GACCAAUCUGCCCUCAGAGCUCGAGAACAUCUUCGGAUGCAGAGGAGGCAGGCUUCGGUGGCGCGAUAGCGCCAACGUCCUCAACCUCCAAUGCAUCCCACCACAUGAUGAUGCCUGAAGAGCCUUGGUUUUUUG

Variants of: B1
Assay: polymerase ribozyme fitness, log enrichment relative to wild type (log ratio); higher = more active; in vitro selection for triplet polymerase activity
Assay Endpoint: polymerase ribozyme fitness (log ratio)

>>> recorded_result("G47A C115U")
-2.3
>>> recorded_result("A26U C101A C114A C123G")
-6.37
>>> recorded_result("A41C C70U C85U")
-2.92
>>> recorded_result("U9A C80U")
0.294
>>> recorded_result("A41C A43C C72G C88A G93U C99A C102A C124A")
-7.15
>>> recorded_result("C12A G19C C85U A91U G122U")
-3.66
>>> recorded_result("G45A C64G A68C C104A G117U")
-6.22
>>> recorded_result("U112A U126A")
1.04
>>> recorded_result("C3U G61A U78G U112G")
-0.547
>>> recorded_result("C73G U81A C85U C115U")
-5.48
>>> recorded_result("C8U C15G G63U U87A")
-3.32
